Below, each of the molecules is paired with its reported Incidence: number of mice suffering from pulmonary fibrosis value.
# Test system: ICR strain mice
# experimental-protocol: Pulmonary toxicity (pulmonary fibrosis) in mice, intraperitoneal injection
# Type: in vivo
# test-parameters: 5 mg/kg i.p. once a day for 10 days; autopsy after 5 weeks; affected/total mice

1. Cc1c(N)nc(C(CC(N)=O)NCC(N)C(N)=O)nc1C(=O)NC(C(=O)NC(C)C(O)C(C)C(=O)NC(C(=O)NCCc1nc(-c2nc(C(=O)NCCCN(C)CCCN(Cc3ccc(OCc4ccc(Cl)cc4)c(OCc4ccc(Cl)cc4)c3)Cc3ccc(OCc4ccc(Cl)cc4)c(OCc4ccc(Cl)cc4)c3)cs2)cs1)C(C)O)C(OC1OC(CO)C(O)C(O)C1OC1OC(CO)C(O)C(OC(N)=O)C1O)c1cnc[nH]1 (centres unmarked) [compound 48]; 0/9

Now look at this one.
q: Given the entry Cc1c(N)nc(C(CC(N)=O)NCC(N)C(N)=O)nc1C(=O)NC(C(=O)NC(C)C(O)C(C)C(=O)NC(C(=O)NCCc1nc(-c2nc(C(=O)NCCCN(C)CCCN(Cc3cc(OCc4ccccc4)c(OCc4ccccc4)c(OCc4ccccc4)c3)Cc3cc(OCc4ccccc4)c(OCc4ccccc4)c(OCc4ccccc4)c3)cs2)cs1)C(C)O)C(OC1OC(CO)C(O)C(O)C1OC1OC(CO)C(O)C(OC(N)=O)C1O)c1cnc[nH]1 (centres unmarked) [compound 53] , report its measured Incidence: number of mice suffering from pulmonary fibrosis.
a: 0/9

----------
# Test system: ICR strain mice
# experimental-protocol: Pulmonary toxicity (pulmonary fibrosis) in mice, intraperitoneal injection
# Format: in vivo
# test-parameters: 5 mg/kg i.p. once a day for 10 days; autopsy after 5 weeks
# Method: (3) Pulmonary toxicity (pulmonary fibrosis) in mice. ICR strain mice (male; 15 weeks old; 9 mice per group) were used. Each mouse was administered with a daily dose of 5 mg/kg of the test sample by intraperitoneal injection, once a day, for 10 consecutive days. After completion of the predetermined administration, the mice were kept for 5 weeks under observation, then slaughtered, and autopsied to examine the incidence and grade of pulmonary fibrosis. […]
property-label: Grade of pulmonary fibrosis, %

1. Cc1c(N)nc(C(CC(N)=O)NCC(N)C(N)=O)nc1C(=O)NC(C(=O)NC(C)C(O)C(C)C(=O)NC(C(=O)NCCc1nc(-c2nc(C(=O)NCCC[N+](C)(C)CCC[N+](C)(C)CCCNCC3CCCCCCC3)cs2)cs1)C(C)O)C(OC1OC(CO)C(O)C(O)C1OC1OC(CO)C(O)C(OC(N)=O)C1O)c1cnc[nH]1 (stereo not shown) [Compound No. 42]; 0%

q: Fill in: Grade of pulmonary fibrosis, % of Cc1c(N)nc(C(CC(N)=O)NCC(N)C(N)=O)nc1C(=O)NC(C(=O)NC(C)C(O)C(C)C(=O)NC(C(=O)NCCc1nc(-c2nc(C(=O)NCCCN(C)CCCN(Cc3ccc(OCC4CCCCCCC4)cc3)Cc3ccc(OCC4CCCCCCC4)cc3)cs2)cs1)C(C)O)C(OC1OC(CO)C(O)C(O)C1OC1OC(CO)C(O)C(OC(N)=O)C1O)c1cnc[nH]1 (stereo not shown) [compound 52] is ___
a: 0%

q: What does the record list as Grade of pulmonary fibrosis, % for Cc1c(N)nc(C(CC(N)=O)NCC(N)C(N)=O)nc1C(=O)NC(C(=O)NC(C)C(O)C(C)C(=O)NC(C(=O)NCCc1nc(-c2nc(C(=O)NCCCN(C)CCCNCc3ccc(Cl)c(Cl)c3)cs2)cs1)C(C)O)C(OC1OC(CO)C(O)C(O)C1OC1OC(CO)C(O)C(OC(N)=O)C1O)c1cnc[nH]1 (stereo not shown) [compound 7] ?
a: 4%

q: I'd like to know its Grade of pulmonary fibrosis, %. The molecule in question is Cc1c(N)nc(C(CC(N)=O)NCC(N)C(N)=O)nc1C(=O)NC(C(=O)NC(C)C(O)C(C)C(=O)NC(C(=O)NCCc1nc(-c2nc(C(=O)NCCCN(C)CCCN(Cc3ccc(OCc4ccc(Cl)cc4)c(OCc4ccc(Cl)cc4)c3)Cc3ccc(OCc4ccc(Cl)cc4)c(OCc4ccc(Cl)cc4)c3)cs2)cs1)C(C)O)C(OC1OC(CO)C(O)C(O)C1OC1OC(CO)C(O)C(OC(N)=O)C1O)c1cnc[nH]1 (stereo not shown) [compound 48]
a: 0%

q: Could you share which Grade of pulmonary fibrosis, % value was measured for Cc1c(N)nc(C(CC(N)=O)NCC(N)C(N)=O)nc1C(=O)NC(C(=O)NC(C)C(O)C(C)C(=O)NC(C(=O)NCCc1nc(-c2nc(C(=O)NCCCN3CCN(CCCN(Cc4ccccc4)Cc4ccccc4)CC3)cs2)cs1)C(C)O)C(OC1OC(CO)C(O)C(O)C1OC1OC(CO)C(O)C(OC(N)=O)C1O)c1cnc[nH]1 (stereo not shown) [Compound No. 43] ?
a: 0%

q: Name the recorded Grade of pulmonary fibrosis, % for Cc1c(N)nc(C(CC(N)=O)NCC(N)C(N)=O)nc1C(=O)NC(C(=O)NC(C)C(O)C(C)C(=O)NC(C(=O)NCCc1nc(-c2nc(C(=O)NCCC[N+](C)(C)CCC[N+](C)(C)CCCN(Cc3ccccc3)Cc3ccccc3)cs2)cs1)C(C)O)C(OC1OC(CO)C(O)C(O)C1OC1OC(CO)C(O)C(OC(N)=O)C1O)c1cnc[nH]1 (stereo not shown) [Compound No. 41] .
a: 0%

q: Need Grade of pulmonary fibrosis, % of Cc1c(N)nc(C(CC(N)=O)NCC(N)C(N)=O)nc1C(=O)NC(C(=O)NC(C)C(O)C(C)C(=O)NC(C(=O)NCCc1nc(-c2nc(C(=O)NCCCN(C)CCCNCC(c3ccccc3)c3ccccc3)cs2)cs1)C(C)O)C(OC1OC(CO)C(O)C(O)C1OC1OC(CO)C(O)C(OC(N)=O)C1O)c1cnc[nH]1 (stereo not shown) [compound 17] , thanks.
a: 7%

q: What does the data say about its Grade of pulmonary fibrosis, %? Entry: Cc1c(N)nc(C(CC(N)=O)NCC(N)C(N)=O)nc1C(=O)NC(C(=O)NC(C)C(O)C(C)C(=O)NC(C(=O)NCCc1nc(-c2nc(C(=O)NCCCN3CCN(CCCNCc4ccc(Cl)cc4)CC3)cs2)cs1)C(C)O)C(OC1OC(CO)C(O)C(O)C1OC1OC(CO)C(O)C(OC(N)=O)C1O)c1cnc[nH]1 (stereo not shown) [compound 44]
a: 0%

q: What value of measured Grade of pulmonary fibrosis, % is listed for Cc1c(N)nc(C(CC(N)=O)NCC(N)C(N)=O)nc1C(=O)NC(C(=O)NC(C)C(O)C(C)C(=O)NC(C(=O)NCCc1nc(-c2nc(C(=O)NCCCN(C)CCCNCc3ccc(OCc4ccccc4)c(OCc4ccccc4)c3)cs2)cs1)C(C)O)C(OC1OC(CO)C(O)C(O)C1OC1OC(CO)C(O)C(OC(N)=O)C1O)c1cnc[nH]1 (stereo not shown) [compound 15] ?
a: 4%

q: GET /values?readout=Grade of pulmonary fibrosis, %&item= Cc1c(N)nc(C(CC(N)=O)NCC(N)C(N)=O)nc1C(=O)NC(C(=O)NC(C)C(O)C(C)C(=O)NC(C(=O)NCCc1nc(-c2nc(C(=O)NCCCN(C)CCCNCC3CCCCCCCCCCCC3)cs2)cs1)C(C)O)C(OC1OC(CO)C(O)C(O)C1OC1OC(CO)C(O)C(OC(N)=O)C1O)c1cnc[nH]1 (stereo not shown) [compound 47]
a: 0%

q: Which value of Grade of pulmonary fibrosis, % has been reported for Cc1c(N)nc(C(CC(N)=O)NCC(N)C(N)=O)nc1C(=O)NC(C(=O)NC(C)C(O)C(C)C(=O)NC(C(=O)NCCc1nc(-c2nc(C(=O)NCCC[N+](C)(CCCN(Cc3ccccc3)Cc3ccccc3)Cc3ccccc3)cs2)cs1)C(C)O)C(OC1OC(CO)C(O)C(O)C1OC1OC(CO)C(O)C(OC(N)=O)C1O)c1cnc[nH]1 (stereo not shown) [compound 39] in the records?
a: 0%

q: Field request: Grade of pulmonary fibrosis, % | item: Cc1c(N)nc(C(CC(N)=O)NCC(N)C(N)=O)nc1C(=O)NC(C(=O)NC(C)C(O)C(C)C(=O)NC(C(=O)NCCc1nc(-c2nc(C(=O)NCCCN(C)CCCN(Cc3cc(OCc4ccccc4)c(OCc4ccccc4)c(OCc4ccccc4)c3)Cc3cc(OCc4ccccc4)c(OCc4ccccc4)c(OCc4ccccc4)c3)cs2)cs1)C(C)O)C(OC1OC(CO)C(O)C(O)C1OC1OC(CO)C(O)C(OC(N)=O)C1O)c1cnc[nH]1 (stereo not shown) [compound 53]
a: 0%

q: Find the recorded Grade of pulmonary fibrosis, % belonging to Cc1c(N)nc(C(CC(N)=O)NCC(N)C(N)=O)nc1C(=O)NC(C(=O)NC(C)C(O)C(C)C(=O)NC(C(=O)NCCc1nc(-c2nc(C(=O)NCCCN3CCN(CCCNCC4CCCCCCC4)CC3)cs2)cs1)C(C)O)C(OC1OC(CO)C(O)C(O)C1OC1OC(CO)C(O)C(OC(N)=O)C1O)c1cnc[nH]1 (stereo not shown) [compound 45] and report it.
a: 0%
